Measured growth of individual entries
Test system: A549/ATCC NSCLC
experiment description: NCI-60 one-dose screen, 48 h (100 = growth as untreated, 0 = no growth, -100 = all killed)
condition context: 10 µM unless noted
The panel holds about 83,000 compounds, 20% with a hit somewhere; the sample as a whole holds those more often.

# compound, assayed system, growth (%)
records = [
    ("OC(COCc1ccccc1)COCc1ccccc1", "A549/ATCC NSCLC", 99.9),
    ("Cn1cnc([N+](=O)[O-])c1S(=O)(=O)Oc1cccc2ccccc12", "A549/ATCC NSCLC", 98.4),
    ("CCC(=O)OCc1ccc(OC)cc1", "A549/ATCC NSCLC", 107),
    ("COc1cc(C2CC(c3ccc(Cl)cc3)=NN2C=O)ccc1Oc1ccnc2cc(Cl)ccc12 (stereo unspecified)", "A549/ATCC NSCLC", 59.1),
    ("CCOC(=O)C1C(=O)C=C(c2cc(OC)c(OC)c(OC)c2)CC1c1sc(N(C)Cc2ccccc2)nc1Cl (stereo unspecified)", "A549/ATCC NSCLC", 71.6),
    ("CCCCCCCCN(CCCCCCCC)C(=O)CCl", "A549/ATCC NSCLC", 114),
]
